Taken from patent US20240423207A1.

# Tested on: Mycosphaerella graminicola; Anamorph: Septoria tritici
# protocol: Leaf Blotch of Wheat (SEPTTR) fungicidal activity on wheat seedlings
# Format: in vivo
# test context: Zymoseptoria tritici, 24 h; Low Volume, 121.5 g/H; 1 Day Protectant; read-out: SEPTTR 1DP disease control
parameter: pest or weed control at 121.5 g/ha

{"molecule": "COc1ccnc(C(=O)N[C@@H](C)C(=O)O[C@@H](C)C(c2ccccc2)c2ccccc2)c1OCOC(=O)C(C)C", "pest or weed control at 121.5 g/ha": "> 80%"}
{"molecule": "COc1ccnc(C(=O)N[C@@H](C)C(=O)O[C@@H](C)C(c2ccccc2)c2ccccc2)c1OC(=O)C(C)C", "pest or weed control at 121.5 g/ha": "> 80%"}

pest or weed control at 121.5 g/ha reading for COc1ccnc(C(=O)N[C@@H](C)C(=O)O[C@@H](C)C(c2ccc(F)cc2)c2ccc(F)cc2)c1OC(C)=O : > 80%

Lab note: COc1ccnc(C(=O)N[C@@H](C)C(=O)OC(C)C2c3ccccc3Oc3ccccc32)c1OCOC(C)=O (some centres unmarked) gave pest or weed control at 121.5 g/ha of < 80%

What the record says about COc1ccnc(C(=O)N[C@@H](C)C(=O)O[C@@H](C)C(F)(c2ccccc2)c2ccccc2)c1OC(C)=O : pest or weed control at 121.5 g/ha is > 80%

// pest or weed control at 121.5 g/ha lookup, molecule = COc1ccnc(C(=O)N[C@@H](C)C(=O)O[C@@H](C)C(c2cccc(Cl)c2)c2cccc(Cl)c2)c1OCOC(C)=O , result: > 80%

pest or weed control at 121.5 g/ha for COc1ccnc(C(=O)NCC(=O)O[C@@H](C)C(c2ccc(F)cc2)c2ccc(F)cc2)c1OC(C)=O is < 80%

pest or weed control at 121.5 g/ha measured on COc1ccnc(C(=O)N[C@@H](C)C(=O)O[C@@H](C)C(F)(c2ccccc2)c2ccccc2)c1OCOC(C)=O = > 80%

====

# System: Puccinia triticina; Synonym: Puccinia recondita f sp. tritici
# protocol: Wheat Brown Rust (PUCCRT) fungicidal activity on wheat seedlings
# Format: in vivo
# test context: 72 h; Low Volume, 121.5 g/H; 3 Day Curative; read-out: PUCCRT 3DC disease control
Each item that follows carries a reported pest or weed control at 121.5 g/ha.

These solved cases illustrate the format of a correct answer.
{"molecule": "COc1ccnc(C(=O)N[C@@H](C)C(=O)O[C@@H](C)C(c2ccc(F)cc2)c2ccc(F)cc2)c1OCOC(=O)C(C)C [Cmpd 211]", "pest or weed control at 121.5 g/ha": "> 80%"}
{"molecule": "COc1ccnc(C(=O)N[C@@H](C)C(=O)O[C@@H](C)C(c2ccc(C)cc2)c2ccc(C)cc2)c1OC(=O)C(C)C [Cmpd 168]", "pest or weed control at 121.5 g/ha": "< 80%"}

The recorded pest or weed control at 121.5 g/ha for COc1ccnc(C(=O)N[C@@H](C)C(=O)O[C@@H](C)C(c2ccccc2)c2ccccc2)c1OCOC(C)=O [Cmpd 141] is > 80%

====

# Tested on: Mycosphaerella graminicola; Anamorph: Septoria tritici
# protocol: Leaf Blotch of Wheat (SEPTTR) fungicidal activity on wheat seedlings
# Assay type: in vivo
# test context: Zymoseptoria tritici, 72 h; Low Volume, 121.5 g/H; 3 Day Curative; read-out: SEPTTR 3DC disease control
Items are presented alongside their recorded pest or weed control at 121.5 g/ha.

{"structure notation": "COc1ccnc(C(=O)N[C@@H](C)C(=O)O[C@@H](C)C(c2ccc(F)cc2)c2ccc(F)cc2)c1OC(=O)C(C)(C)C", "pest or weed control at 121.5 g/ha": "> 80%"}
{"structure notation": "COc1ccnc(C(=O)N[C@@H](C)C(=O)O[C@@H](C)C(c2ccc(Cl)c(C)c2)c2ccc(Cl)c(C)c2)c1OC(C)=O", "pest or weed control at 121.5 g/ha": "> 80%"}
{"structure notation": "COc1ccnc(C(=O)N[C@@H](C)C(=O)O[C@@H](C)[C@@H](c2ccccc2)c2ccc(F)cc2)c1OCOC(C)=O", "pest or weed control at 121.5 g/ha": "> 80%"}
{"structure notation": "COc1ccnc(C(=O)N[C@@H](C)C(=O)O[C@@H](C)C(c2ccccc2)c2ccccc2)c1OC(=O)C(C)C", "pest or weed control at 121.5 g/ha": "> 80%"}
{"structure notation": "COc1ccnc(C(=O)N[C@@H](C)C(=O)O[C@@H](C)C(O)(c2ccc(Cl)c(Cl)c2)c2ccc(Cl)c(Cl)c2)c1OCOC(C)=O", "pest or weed control at 121.5 g/ha": "> 80%"}
{"structure notation": "COc1ccnc(C(=O)N[C@@H](C)C(=O)O[C@@H](C)C(c2ccc(F)cc2)c2ccc(F)cc2)c1OC(=O)C(C)C", "pest or weed control at 121.5 g/ha": "> 80%"}

Per the reported Mycosphaerella graminicola; Anamorph: Septoria tritici data, COc1ccnc(C(=O)N[C@@H](C)C(=O)O[C@@H](C)C(O)(c2ccccc2F)c2ccccc2F)c1OCOC(C)=O has pest or weed control at 121.5 g/ha of < 80%

The reported pest or weed control at 121.5 g/ha value, Mycosphaerella graminicola; Anamorph: Septoria tritici, for COc1ccnc(C(=O)N[C@@H](C)C(=O)O[C@@H](C)C(OC)(c2ccccc2)c2ccccc2)c1OCOC(C)=O reads > 80%

Field pest or weed control at 121.5 g/ha (Mycosphaerella graminicola; Anamorph: Septoria tritici), entry COc1ccnc(C(=O)N[C@@H](C)C(=O)O[C@@H](C)C(c2ccc(C)c(Cl)c2)c2ccc(C)c(Cl)c2)c1OCOC(C)=O : < 80%

The molecule COc1ccnc(C(=O)N[C@H](C(=O)O[C@@H](C)C(c2ccc(F)cc2)c2ccc(F)cc2)C(C)C)c1OCOC(C)=O , tested on Mycosphaerella graminicola; Anamorph: Septoria tritici, showed pest or weed control at 121.5 g/ha of > 80%

Lab entry: Mycosphaerella graminicola; Anamorph: Septoria tritici assay, molecule C#Cc1ccc(C(c2ccc(C#C)cc2)[C@H](C)OC(=O)[C@H](C)NC(=O)c2nccc(OC)c2OCOC(C)=O)cc1 , pest or weed control at 121.5 g/ha = > 80%

pest or weed control at 121.5 g/ha of COc1ccnc(C(=O)NCC(=O)O[C@@H](C)C(c2ccc(F)cc2)c2ccc(F)cc2)c1OCOC(C)=O , assay on Mycosphaerella graminicola; Anamorph: Septoria tritici, is < 80%

Case COc1ccnc(C(=O)N[C@@H](C)C(=O)O[C@@H](C)C(c2ccc(C)s2)c2ccc(C)s2)c1OC(C)=O , Mycosphaerella graminicola; Anamorph: Septoria tritici, pest or weed control at 121.5 g/ha recorded as < 80%

Simply: COc1ccnc(C(=O)N[C@@H](C)C(=O)O[C@@H](C)[C@@H](c2ccccc2)c2ccc(C(F)(F)F)cc2)c1OC(C)=O , Mycosphaerella graminicola; Anamorph: Septoria tritici, pest or weed control at 121.5 g/ha = > 80%

Reported Mycosphaerella graminicola; Anamorph: Septoria tritici pest or weed control at 121.5 g/ha for item COc1ccnc(C(=O)N[C@@H](C)C(=O)O[C@@H](C)C(c2ccc(F)c(F)c2)c2ccc(F)c(F)c2)c1OCOC(C)=O was > 80%
